# target or system: T1, Recombinant mouse NELL2 (neural epidermal growth factor-like like 2) (mouse, UniProt Q61220 25-819)
# T1 sequence (looked up): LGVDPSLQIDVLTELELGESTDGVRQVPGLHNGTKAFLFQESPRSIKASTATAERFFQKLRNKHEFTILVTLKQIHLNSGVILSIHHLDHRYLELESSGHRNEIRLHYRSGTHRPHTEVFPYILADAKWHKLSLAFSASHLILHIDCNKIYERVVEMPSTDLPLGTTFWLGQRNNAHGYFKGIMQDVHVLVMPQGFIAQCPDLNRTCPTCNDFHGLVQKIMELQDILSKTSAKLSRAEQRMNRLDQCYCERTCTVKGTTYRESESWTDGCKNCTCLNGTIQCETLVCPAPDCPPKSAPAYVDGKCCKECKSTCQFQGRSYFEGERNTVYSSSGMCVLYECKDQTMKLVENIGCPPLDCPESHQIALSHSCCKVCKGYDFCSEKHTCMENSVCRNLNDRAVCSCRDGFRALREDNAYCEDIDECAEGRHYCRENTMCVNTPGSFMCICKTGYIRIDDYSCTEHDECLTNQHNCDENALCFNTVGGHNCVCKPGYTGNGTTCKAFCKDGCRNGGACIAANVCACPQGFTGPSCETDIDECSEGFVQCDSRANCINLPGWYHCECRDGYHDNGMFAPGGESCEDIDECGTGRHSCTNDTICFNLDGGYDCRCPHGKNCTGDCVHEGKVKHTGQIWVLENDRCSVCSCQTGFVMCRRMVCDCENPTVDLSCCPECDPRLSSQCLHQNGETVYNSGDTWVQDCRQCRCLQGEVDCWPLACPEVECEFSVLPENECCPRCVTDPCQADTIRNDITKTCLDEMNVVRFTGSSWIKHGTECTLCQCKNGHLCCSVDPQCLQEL
# procedure details: SPR
Positions of bridges follow the written chain, without caps; N, C: chain ends.
measured quantity: Kd

>>> reported_result("Synthetic NICOL with the SS isomer 4 (mouse NICOL, non-native SS bond pairing) (natural protein, disulfide 15-57, 18-55) EPATGSAVPAQSRPCVDCHAFEFMQRALQDLRKTAYSLDARTETLLLQAERRALCACWPAGR")
"145 nM"
>>> reported_result("Synthetic NICOL with the native SS bond pairing 3 (mouse NELL2-interacting cofactor for lumicrine signaling) (natural protein, disulfide 15-55, 18-57) EPATGSAVPAQSRPCVDCHAFEFMQRALQDLRKTAYSLDARTETLLLQAERRALCACWPAGR")
"61.7 nM"
